- ASSAY_DETAILS: Absolute bioavailability in human
- Format: ADME, organism-based
- DETAILS: in vivo
Task for the reader: assign each of the following compounds its reported bioavailability.
Numbers only, in %.

Answered examples (3):
| COMPOUND | UNIT_LABEL | bioavailability |
| --- | --- | --- |
| CC1(C)S[C@@H]2[C@H](NC(=O)[C@H](N)c3ccc(O)cc3)C(=O)N2[C@H]1C(=O)O [AMOXICILLIN] | % | 45 |
| O=c1c(O[C@@H]2O[C@H](CO)[C@@H](O)[C@H](O)[C@H]2O)c(-c2ccc(O[C@@H]3O[C@H](CO)[C@@H](O)[C@H](O)[C@H]3O)c(O)c2)oc2cc(O)cc(O)c12 | % | 60 |
| CC1COc2c(N3CCN(C)CC3)c(F)cc3c(=O)c(C(=O)O)cn1c23 (stereo unspecified) [OFLOXACIN] | % | 90 |

Provide each entry's bioavailability from the list below.
1. C[C@H]1O[C@@H](O[C@H]2[C@@H](O)C[C@H](O[C@H]3[C@@H](O)C[C@H](O[C@H]4CC[C@@]5(C)[C@H](CC[C@@H]6[C@@H]5C[C@@H](O)[C@]5(C)[C@@H](C7=CC(=O)OC7)CC[C@]65O)C4)O[C@@H]3C)O[C@@H]2C)C[C@H](O)[C@@H]1O [DIGOXIN]
2. COC1=CC(=O)C[C@@H](C)[C@]12Oc1c(Cl)c(OC)cc(OC)c1C2=O [GRISEOFULVIN]
3. CN/C(=N/CCSCc1nc[nH]c1C)NC#N [CIMETIDINE]
4. CC(C)NCC(O)c1ccc(NS(C)(=O)=O)cc1 (stereo unspecified) [SOTALOL]
5. COc1ccc(CCN(C)CCCC(C#N)(c2ccc(OC)c(OC)c2)C(C)C)cc1OC (stereo unspecified)

result:
1: 70; 2: 95; 3: 60; 4: 95; 5: 84

Provide each entry's bioavailability from the list below.
1. OC[C@H]1OC(O)[C@H](O)[C@@H](O)[C@@H]1O (stereo partly specified) [DEXTROSE]
2. COc1cc(Cc2cnc(N)nc2N)cc(OC)c1OC [TRIMETHOPRIM]
3. Cc1cc(=O)n(-c2ccccc2)n1C [ANTIPYRINE]
4. CC(C)(C)NCC(O)COc1cccc2c1CC(O)C(O)C2 (stereo unspecified) [NADOLOL]
5. CC(C)NCC(O)COc1cccc2ccccc12 (stereo unspecified) [PROPRANOLOL]
6. CCCCc1nc(Cl)c(CO)n1Cc1ccc(-c2ccccc2-c2nn[nH]n2)cc1 [LOSARTAN]
7. COc1cc([C@@H]2c3cc4c(cc3[C@@H](O[C@@H]3O[C@@H]5CO[C@@H](C)O[C@H]5[C@H](O)[C@H]3O)[C@H]3COC(=O)[C@H]23)OCO4)cc(OC)c1O [ETOPOSIDE]

result:
100
98
99
30
100
50
52

query: Return reported bioavailability. Input compound: C[S+]([O-])CCCCN=C=S (stereo unspecified) [SULFORAPHANE]
result: 74

----------
- ASSAY_DETAILS: Octanol-water partition coefficient, log P of the compound
- Assay type: physicochemical
- DETAILS: read-out: logP
Note to self: class labels come from recorded logP, ranges listed here: lower segment (below -1), middle segment (-1 to below -0.08), upper segment (-0.08 or more)

Known results for molecules:
| MOLECULE | CAT |
| --- | --- |
| C[S+]([O-])CCCCN=C=S (stereo unspecified) | upper segment |
| OC[C@H]1OC(O)[C@H](O)[C@@H](O)[C@@H]1O (stereo partly specified) | middle segment |
| NC(N)=O | lower segment |
| CC(C(=O)O)c1cccc(C(=O)c2ccccc2)c1 (stereo unspecified) | upper segment |
| NS(=O)(=O)c1cc2c(cc1Cl)NCNS2(=O)=O [HYDROCHLOROTHIAZIDE] | upper segment |

Alright, here's another molecule for you.
query: Input `CC(C)[C@H](N)C(=O)OCCOCn1cnc2c(=O)[nH]c(N)nc21` ; output its category
result: lower segment

Reference source for all entries: ChEMBL document CHEMBL1158536
